Where do the numbers come from? From patent US20240173296A1.

experiment: Pharmacokinetic testing after single intravenous administration in beagle dogs; assay type: in vivo; conditions: dog, single intravenous (S)-ketorolac 0.16 mg/kg, plasma analyte = label, mean ± standard deviation
testReadout: AUC(0-t) (ng·h/mL)
One number for each entry, in ng·h/mL.

[
  {
    "compound": "O=C(c1ccccc1)c1ccc2n1CC[C@@H]2C(=O)O [(S)-ketorolac]",
    "AUC(0-t), ng·h/mL": 545
  }
]

Proceeding to the next compound to report its AUC(0-t).
The compound listed as O=C(c1ccccc1)c1ccc2n1CC[C@H]2C(=O)O [(R)-ketorolac] has a reported AUC(0-t) of 11.7
